Target: T1, ACKR3 D141N-YFP (UniProt P25106 1-362, D141N)
T1 construct: ACKR3 (CXCR7) with D141N (Ballesteros-Weinstein 3.49), made by PCR in ACKR3-YFP; also called D141^3.49N; source: HEK293, transiently transfected (polyethyleneimine), on or in cells; not shown: YFP, C-terminal, kept
T1 sequence (P25106 whole entry D141N): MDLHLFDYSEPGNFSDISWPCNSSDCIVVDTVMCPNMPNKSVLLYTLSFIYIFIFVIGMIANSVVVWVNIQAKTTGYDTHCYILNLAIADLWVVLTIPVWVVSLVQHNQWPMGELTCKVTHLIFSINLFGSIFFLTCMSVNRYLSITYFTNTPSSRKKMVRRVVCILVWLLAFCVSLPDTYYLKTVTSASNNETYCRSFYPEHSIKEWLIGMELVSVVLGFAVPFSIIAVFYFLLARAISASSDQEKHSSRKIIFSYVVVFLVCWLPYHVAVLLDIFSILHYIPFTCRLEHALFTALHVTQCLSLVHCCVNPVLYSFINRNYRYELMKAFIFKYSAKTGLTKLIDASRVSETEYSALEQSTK
Assay: radioligand binding; HEK293 cells expressing ACKR3-YFP or mutants, pretreated 5 min at 37 °C with 100 μM phenylarsine oxide; 50 pM 125I-CXCL12 tracer in 50 mM HEPES pH 7.4, 5 mM MgCl2, 1 mM CaCl2, 0.2% BSA, with or without unlabeled CXCL12 or CXCL11, 30 min at 37 °C; bound label counted in a γ counter; IC50 taken as proxy for ligand affinity
Settings: one partner purified
Readout: pIC50
Recall that pIC50 is obtained by taking minus log10 of the concentration measured in molar.

binder CXCL11 (unlabeled recombinant chemokine) (ligand, human, UniProt O14625 22-94, looked up, chemokine CXCL11 (I-TAC); called human CXCL11 in the text on scavenging by MEFs; also called I-TAC; unlabeled CXCL11; source: recombinant; gift from Amanda Nevins and Brian Volkman or from PeproTech Inc) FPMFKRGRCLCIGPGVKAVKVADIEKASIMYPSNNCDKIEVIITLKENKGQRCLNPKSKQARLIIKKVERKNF , pIC50 observed: 8.32
